Provenance of the data: paper PMC3089477

target: T1, BcnI wt (UniProt Q8RNV8 1-238)
T1 sequence: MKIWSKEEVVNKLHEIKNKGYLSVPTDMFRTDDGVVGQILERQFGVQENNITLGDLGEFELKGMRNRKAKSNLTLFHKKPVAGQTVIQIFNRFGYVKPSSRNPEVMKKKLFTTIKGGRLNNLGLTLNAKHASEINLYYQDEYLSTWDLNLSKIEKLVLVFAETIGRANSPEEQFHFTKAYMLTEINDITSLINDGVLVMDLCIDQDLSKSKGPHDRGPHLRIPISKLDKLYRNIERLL
measurement notes: EMSA
measurement name: pKd
One number for each entry, as −log10 of the molar value.

# get_value(readout='pKd', item= CG oligoduplex (cognate) (dsDNA) DNA 1: CGCACGACTTCCCGGAAGAGCACGC DNA 2: GTTGCGTGCTCTTCCGGGAAGTCGTGCG )
9.30
